# procedure-details: Neutralization of the ABTS radical
# run-conditions: 37 °C, 15 min, 738 nm; read-out: EC50 of half-maximal ABTS radical inhibition
Label criterion met when EC50 < 4 µM; otherwise criterion not met.

is_below(EC50, 4 µM) for O=C1O[C@H]([C@@H](O)CO)C(O)=C1O ? criterion not met

Check Cc1c(C)c2c(c(C)c1O)CCC(C)(C(=O)O)O2 (stereo not drawn) too. criterion not met

Check COc1cccc2c1C(=O)c1c(O)c3c(c(O)c1C2=O)CC(O)(C(=O)CO)CC3OC1CC(NC(=O)/C=C/c2cnc(C)c3c2COC(C)(C)O3)C(O)C(C)O1 (stereo not drawn) too. criterion not met

Check COc1cccc2c1C(=O)c1c(O)c3c(c(O)c1C2=O)C[C@@](O)(C(=O)CO)C[C@@H]3O[C@H]1C[C@H](N)[C@H](O)[C@H](C)O1 [DOX, Doxorubicin, reference compound] too. criterion not met

Check COc1cccc2c1C(=O)c1c(O)c3c(c(O)c1C2=O)CC(O)(C(=O)CO)CC3OC1CC(NC(=O)c2cnc(C)c3c2COC(C)(C)O3)C(O)C(C)O1 (stereo not drawn) too. criterion not met

Check O=c1c(O)c(-c2ccc(O)c(O)c2)oc2cc(O)cc(O)c12 too. criterion met

* * *

# System: HCT-15
# procedure-details: Colony formation assay
# Format: cell-based
# run-conditions: Homo sapiens, HCT-15, 72 h, incubation three days, read-out: Inhibitory concentration IC50, HCT-15
# Method: Cells were cultured in a 24-well plate with 1 mL of DMEM nutrient medium for 24 h. […] The experiment was conducted in triplicate and in two or three independent repetitions. Only solvent was added to the control wells instead of the test compounds. […] The colonies were stained with a 0.4% solution of crystal violet in 20% ethanol for 30 min and then washed 3 times with dH2O and analyzed under a microscope. […]
outcome-measure: IC50 (µM)
Value expressed in µM; do not type the unit.

// query IC50 value for entry COc1cccc2c1C(=O)c1c(O)c3c(c(O)c1C2=O)CC(O)(C(=O)CO)CC3OC1CC(NC(=O)/C=C/c2cnc(C)c3c2COC(C)(C)O3)C(O)C(C)O1 (stereo not shown) 110

* * *

# Tested on: NCI-H322M
# procedure-details: Colony formation assay
# Type: cell-based
# run-conditions: Homo sapiens, 72 h, incubation three days, read-out: Inhibitory concentration IC50, NCI-H322M
pIC50: −log10 of the molar value.
outcome-measure: pIC50

// query pIC50 value for entry COc1cccc2c1C(=O)c1c(O)c3c(c(O)c1C2=O)CC(O)(C(=O)CO)CC3OC1CC(NC(=O)/C=C/c2cnc(C)c3c2COC(C)(C)O3)C(O)C(C)O1 (stereo not shown) < 4.00

* * *

# procedure-details: Neutralization of the ABTS radical
# run-conditions: ABTS radical neutralization, relative to Trolox
# Experimental: Initially, an ABTS solution was prepared in water at a concentration of 7 mM. Subsequently, the radical cation ABTS^•+ was generated by mixing the original ABTS solution with 2.45 mM ammonium persulfate at a 1:1 ratio. […] The optical density was measured at 738 nm using the Infinite M200 PRO (TECAN, Zürich, Switzerland) plate reader. The percentage inhibition of ABTS absorption relative to the control was calculated. […] The Trolox Equivalent Antioxidant Capacity (TEAC) was also calculated.
Label 1 (yes) when Trolox Equivalent Antioxidant Capacity (TEAC) < 2; otherwise 0 (no).

is_below(Trolox Equivalent Antioxidant Capacity (TEAC), 2) for Cc1c(C)c2c(c(C)c1O)CCC(C)(C(=O)O)O2 (stereo not drawn) ? 1 (yes)

Check COc1cccc2c1C(=O)c1c(O)c3c(c(O)c1C2=O)C[C@@](O)(C(=O)CO)C[C@@H]3O[C@H]1C[C@H](N)[C@H](O)[C@H](C)O1 [DOX, Doxorubicin, reference compound] too. 0 (no)

Check COc1cccc2c1C(=O)c1c(O)c3c(c(O)c1C2=O)CC(O)(C(=O)CO)CC3OC1CC(NC(=O)c2cnc(C)c3c2COC(C)(C)O3)C(O)C(C)O1 (stereo not drawn) too. 0 (no)

Check O=C1O[C@H]([C@@H](O)CO)C(O)=C1O too. 1 (yes)

Check COc1cccc2c1C(=O)c1c(O)c3c(c(O)c1C2=O)CC(O)(C(=O)CO)CC3OC1CC(NC(=O)/C=C/c2cnc(C)c3c2COC(C)(C)O3)C(O)C(C)O1 (stereo not drawn) too. 1 (yes)

Check O=c1c(O)c(-c2ccc(O)c(O)c2)oc2cc(O)cc(O)c12 too. 0 (no)

The values you see were collected from paper PMC10970924.
